# key: entry, value: Efficacy (GABA) %
molecular target: h-GABA-A α5β3γ2 (Homo sapiens (Human), UniProt P18507+P31644); assay: Two-electrode voltage clamp electrophysiology in Xenopus oocytes expressing GABAA receptors, modulation of GABA EC20 current; type: cell-based; conditions: reference compounds, % modulation of GABA EC20
parameter: Efficacy (GABA) % (%)

molecule: Cc1onc(-c2cccnc2)c1COc1ccc(C(=O)NC2CCOCC2)cn1 [RO-159, reference compound]
parameter: Efficacy (GABA) %
unit_descriptor: %
observed_result: −12
--
molecule: Cc1ccc(-c2noc(C)c2COc2ccc(C(=O)NC3CCOCC3)cn2)cc1 [RO-251, reference compound]
parameter: Efficacy (GABA) %
unit_descriptor: %
observed_result: −18
--
molecule: Cc1onc(-c2ccccn2)c1COc1ccc(C(=O)NC2CCOCC2)nn1 [RO-094, reference compound]
parameter: Efficacy (GABA) %
unit_descriptor: %
observed_result: −18
--
molecule: Cc1onc(-c2ccccn2)c1COc1ccc(C(=O)NC2CCOCC2)cn1 [RO-272, reference compound]
parameter: Efficacy (GABA) %
unit_descriptor: %
observed_result: −32
--
molecule: Cc1onc(-c2ccc(Cl)cn2)c1COc1ccc(C(=O)NC2CCOCC2)cn1 [RO-301, reference compound]
parameter: Efficacy (GABA) %
unit_descriptor: %
observed_result: −18
--
molecule: Cc1onc(-c2cccnc2)c1COc1ccc(C(=O)NC2CCOCC2)nn1 [RE-A, reference compound]
parameter: Efficacy (GABA) %
unit_descriptor: %
observed_result: −3

* * *

List of Efficacy (GABA) % values.
Biological target: h-GABA-A α5β3γ2 (Homo sapiens (Human), UniProt P18507+P31644)
Experiment: Two-electrode voltage clamp electrophysiology in Xenopus oocytes expressing GABAA receptors, modulation of GABA EC20 current
Type: cell-based
Conditions: % modulation of GABA EC20 = 100*(Fold increase−1), Xenopus oocytes
Experimental: Xenopus laevis oocytes at maturation stages V-VI were used for the expression of cloned mRNA encoding GABAA receptor subunits. Oocytes ready for RNA micro-injection were bought from Ecocyte, Castrop-Rauxel, Germany and stored in modified Barth's medium (composition in mM: NaCl 88, KCl 1, NaHCO32.4, HEPES 10, MgSO4 0.82, CaNO3 0.33, CaCl2) 0.33, pH=7.5) at 20° C. until the experiment. […]
parameter: Efficacy (GABA) %

molecule: Cc1ccc(-c2noc(C)c2COc2ccc(C(=O)N[C@H]3C[C@H]4CC[C@H]3O4)nn2)cn1 (single isomer, unassigned) [Example 188]
observed_result: 71%

molecule: CCNC(=O)c1ccc(OCc2c(-c3ccc(C)nc3)noc2C)nc1 [Example 3]
observed_result: 41%

molecule: CCNC(=O)c1ccc(OCc2c(-c3ccc(C)nc3)noc2C)nn1 [Example 37]
observed_result: 73%

molecule: Cc1ccc(-c2noc(C)c2COc2cnc(C(=O)N[C@H]3CC[C@@H](C(F)(F)F)CC3)cn2)cn1 [Example 102]
observed_result: 21%

molecule: Cc1ccc(-c2noc(C)c2COc2cnc(C(=O)NCC3CC3)cn2)cn1 [Example 95]
observed_result: 67%

molecule: Cc1ccc(-c2noc(C)c2COc2ccc(C(=O)N[C@@H]3CCCOC3)nn2)cn1 [Example 99]
observed_result: 73%

molecule: Cc1ccc(-c2noc(C)c2COc2ccc(C(=O)N[C@H]3C[C@@H](OCC(F)F)C3)nn2)cn1 [Example 169]
observed_result: 66%

molecule: Cc1ccc(-c2noc(C)c2COc2ccc(C(=O)NCC(C)C)nn2)cn1 [Example 39]
observed_result: 89%

molecule: Cc1ccc(-c2noc(C)c2COc2ccc(C(=O)N3C[C@@H]4C[C@H]3CO4)nn2)cn1 [Example 151]
observed_result: 68%

molecule: CCC[C@@H](CO)NC(=O)c1ccc(OCc2c(-c3cnc(C)c(F)c3)noc2C)nc1 [Example 145]
observed_result: 144%

molecule: Cc1ccc(-c2noc(C)c2COc2ccc(C(=O)N[C@H]3C[C@@H](OC(F)F)C3)nn2)cn1 [Example 173]
observed_result: 68%

molecule: Cc1ccc(-c2noc(C)c2COc2ccc(C(=O)N[C@H]3CCCC[C@@H]3O)cn2)cn1 [Example 135]
observed_result: 92%

molecule: Cc1ccc(-c2noc(C)c2COc2ccc(C(=O)NC3CC4(C3)CC(F)(F)C4)nn2)cn1 [Example 167]
observed_result: 64%

molecule: CCC[C@@H](CO)NC(=O)c1ccc(OCc2c(-c3ccc(C)nc3)noc2C)nn1 [Example 7]
observed_result: 102%

molecule: CCc1onc(-c2ccc(C)nc2)c1COc1ccc(C(=O)NC2CCOCC2)cn1 [Example 119]
observed_result: 102%

molecule: Cc1ccc(-c2noc(C)c2COc2cnc(C(=O)NC3CCS(=O)(=O)C3)cn2)cn1 (centres unmarked) [Example 94]
observed_result: 92%

molecule: Cc1ccc(-c2noc(C)c2COc2ccc(C(=O)N[C@@H]3CCCC(F)(F)[C@H]3O)cn2)cn1 [Example 131]
observed_result: 51%

molecule: Cc1ccc(-c2noc(CF)c2COc2ccc(C(=O)NC3(C(F)(F)F)CC3)nn2)cn1 [Example 184]
observed_result: 96%

molecule: Cc1ccc(-c2noc(C)c2COc2ccc(C(=O)NC(C)(C)CCS(C)(=O)=O)nn2)cn1 [Example 80]
observed_result: 108%

molecule: Cc1ccc(-c2noc(C)c2COc2ccc(C(=O)NC3(C)CCOCC3)nn2)cn1 [Example 97]
observed_result: 71%

molecule: CCC[C@@H](CO)NC(=O)c1cnc(OCc2c(-c3ccc(C)nc3)noc2C)cn1 [Example 14]
observed_result: 160%

molecule: Cc1ccc(-c2noc(C)c2COc2cnc(C(=O)NC3CC3)cn2)cn1 [Example 74]
observed_result: 28%

molecule: Cc1ccc(-c2noc(C)c2COc2ccc(C(=O)N[C@]3(C)CCOC3)nn2)cn1 (single isomer, unassigned) [Example 82]
observed_result: 101%

molecule: Cc1ccc(-c2noc(C)c2COc2ccc(C(N)=O)cn2)cn1 [Example 17]
observed_result: 60%

molecule: CCc1onc(-c2ccc(C)nc2)c1COc1ccc(C(=O)NC2CCOCC2)nn1 [Example 121]
observed_result: 109%

molecule: Cc1ccc(-c2noc(C)c2COc2cnc(C(=O)NC3CCC(F)(F)CC3)cn2)cn1 [Example 86]
observed_result: 120%

molecule: Cc1ccc(-c2noc(C)c2COc2cnc(C(=O)NC3CC4(COC4)C3)cn2)cn1 [Example 101]
observed_result: 82%

molecule: CO[C@H]1CC[C@@H](NC(=O)c2ccc(OCc3c(-c4ccc(C)nc4)noc3C)nn2)CC1 [Example 158]
observed_result: 79%

molecule: Cc1ccc(-c2noc(C)c2COc2cnc(C(=O)NC3CCOCC3)cn2)cn1 [Example 15]
observed_result: 55%

molecule: COc1cc(OCc2c(-c3ccc(C)nc3)noc2C)ncc1C(=O)NC1CCOCC1 [Example 142]
observed_result: 44%

molecule: CCO[C@@H]1CC[C@@H](NC(=O)c2ccc(OCc3c(-c4ccc(C)nc4)noc3C)nn2)C1 [Example 190]
observed_result: 63%

molecule: Cc1ccc(-c2noc(C)c2COc2ccc(C(=O)N3CCC(F)(F)C3)nn2)cn1 [Example 48]
observed_result: 74%

* * *

Target: h-GABA-A α5β3γ2 (Homo sapiens (Human), UniProt P18507+P31644)
Test: [3H]flumazenil competition binding assay, membranes of HEK293 cells expressing human GABAA receptors
Conditions: reference compounds, GABAA receptor α5β3γ2; read-out: Ki α5-human
Procedure: The affinity of compounds at GABAA receptor subtypes was measured by competition for [3H]flumazenil (85 Ci/mmol; Roche) binding to HEK293 cells expressing rat (stably transfected) or human (transiently transfected) receptors of composition α1β3γ2, α2β3γ2, α3β3γ2 and α5β3γ2. […]
pKi: −log10 of the molar value.
The entries below come with measured pKi values attached.

compound: Cc1onc(-c2cccnc2)c1COc1ccc(C(=O)NC2CCOCC2)nn1 [RE-A, reference compound]
pKi: 7.19
//
compound: Cc1onc(-c2ccccn2)c1COc1ccc(C(=O)NC2CCOCC2)cn1 [RO-272, reference compound]
pKi: 9.00
//
compound: Cc1onc(-c2ccccn2)c1COc1ccc(C(=O)NC2CCOCC2)nn1 [RO-094, reference compound]
pKi: 8.54

* * *

molecular target: h-GABA-A α5β3γ2 (Homo sapiens (Human), UniProt P18507+P31644); test: Two-electrode voltage clamp electrophysiology in Xenopus oocytes expressing GABAA receptors, modulation of GABA EC20 current; format: cell-based; conditions: Xenopus oocytes, GABA EC20, test compound at approx. 30 fold its Ki
I would appreciate it if you labelled entries True when Fold increase h-GABA-A α5β3γ2 oocyte is 2 or higher, otherwise False.

cpd_smiles: Cc1ccc(-c2noc(C)c2COc2ccc(C(=O)N[C@@H]3CC[C@@H](OCC(F)F)C3)nn2)cn1
label: False
//
cpd_smiles: Cc1ccc(-c2noc(C)c2COc2ccc(C(=O)NCC(C)C)nn2)cn1
label: False
//
cpd_smiles: CCc1onc(-c2ccc(C)nc2)c1COc1ccc(C(=O)NC2CCS(=O)(=O)CC2)cn1
label: True
//
cpd_smiles: Cc1ccc(-c2noc(C)c2COc2ccc(C(=O)N3CC4(C3)CC(F)(F)C4)nn2)cn1
label: False
//
cpd_smiles: Cc1ccc(-c2noc(C)c2COc2cc3c(cn2)C(=O)N(C2CCC(F)(F)CC2)C3)cn1
label: False
//
cpd_smiles: Cc1ccc(-c2noc(C3CC3)c2COc2ccc(C(=O)NC3CCOCC3)nn2)nn1
label: True
//
cpd_smiles: Cc1ccc(-c2noc(C)c2COc2ccc(C(=O)N3CCC3)nn2)cn1
label: False
//
cpd_smiles: CCC[C@@H](CO)NC(=O)c1ccc(OCc2c(-c3ccc(C)nc3)noc2C(F)F)nc1
label: True
